test system: SK-OV-3; assay: Inhibitory effect of Gold(III) complex, CDDP on growth of cisplatin-resistant SKOV3 human tumor cell lines; format: functional, cell-based
Measured Endpoint: pIC50
Remember, pIC50 is on a log scale: it is -log10 of the molar concentration.

Sample `CISPLATIN` ; pIC50 observed: 4.67

###

test system: CCRF-CEM; assay: Inhibitory effect of Gold(III) complex, 2,2' bipy on growth of cisplatin-sensitive CCRF-CEM/S human tumor cell lines; assay type: functional, cell-based
Measured Endpoint: pIC50
Remember, pIC50 is on a log scale: it is -log10 of the molar concentration.

Considering c1ccc(-c2ccccn2)nc1 [DIPYRIDYL] , its pIC50 with CCRF-CEM was recorded as 4.28

###

test system: CCRF-CEM; assay: Inhibitory effect of Gold(III) complex, 2,2' bipy on growth of cisplatin-resistant CCRF-CEM/R human tumor cell lines; format: functional, cell-based
Measured Endpoint: IC50 (µM)
Unit µM implied. Number only.

Sample c1ccc(-c2ccccn2)nc1 [DIPYRIDYL] ; IC50 observed: 61.7
